Tested on: MDA-MB-435 melanoma
Procedure Details: NCI-60 one-dose screen, 48 h (100 = growth as untreated, 0 = no growth, -100 = all killed)
Setup Conditions: 10 µM unless noted
The panel holds about 83,000 compounds, 20% with a hit somewhere; the sample as a whole holds those more often.
growth reference
Hi! Could you send only the number? It should be in %, unit omitted.

The examples below pair each entry with its known result.
> print(dat)
                                   compound          measured.on  numeric.result
1  COc1cc(CN(c2ccc(C)cc2)C2OC(=O)c3ccccc32)cc(OC)c1OC (stereo not given)  MDA-MB-435 melanoma           -17.8
2  CC(=O)c1ccc(N2C(=O)c3ccc(Oc4ccccc4)cc3C2=O)cc1  MDA-MB-435 melanoma            96.3

Here COc1cccc(/C(C)=N/NC(=O)CSc2nc3ccccc3c(=O)n2CCc2ccc(S(N)(=O)=O)cc2)c1 was tested on MDA-MB-435 melanoma, and its growth came to 38.4

Here O=C(Nc1cccc(Cl)c1)Nc1ccccc1Cl was tested on MDA-MB-435 melanoma, and its growth came to 92.2

Here CSC1=N/C(=C\c2cccc(OCc3ccc(Cl)cc3)c2)C(=O)N1 was tested on MDA-MB-435 melanoma, and its growth came to 80.6

====

Tested on: K-562 leukemia
Procedure Details: NCI-60 one-dose screen, 48 h
Setup Conditions: 10 µM unless noted
About 83,000 compounds went through this panel and 20% of them were active in at least one assay; those are over-represented in the sample as a whole. Activity calls are given as the source filed them. The calls were made as follows: active = growth percent below 10; inactive = the rest.
Use one of these outcomes when replying: class 1 = active, class 0 = inactive

Worked cases, answers included:
Compound	Assigned Class
CCOc1cc(/C=N\NC(=O)C[N+](C)(C)C)ccc1O	class 0
CN(C)CCNC(=O)n1cc(-c2ccncc2)c(-c2cc(O)cc(Cl)c2)n1	class 0
CS(=O)(=O)c1ccc(C(=O)N/N=C/c2ccccc2Cl)cc1	class 0
ClCCn1cnc2c(SCc3ccccc3Cl)ncnc21	class 0
Cc1cccc2nc3ccccc3c(Nc3ccc(NS(C)(=O)=O)cc3)c12	class 0

Would you kindly look at the next entry?
Look up the recorded call for CCOCCNc1ccc(S(=O)(=O)c2ccc(N)cc2)cc1N in this test.
class 0

====

Test system: PC-3 prostate
Procedure Details: NCI-60 one-dose screen, 48 h (100 = growth as untreated, 0 = no growth, -100 = all killed)
Setup Conditions: 10 µM unless noted
About 83,000 compounds went through this panel and 20% of them were active in at least one assay; those are over-represented in the sample as a whole. Calls of active or inactive are those of the source. The calls were made as follows: active = growth percent below 10; inactive = the rest.
Property Label: growth

The examples below pair each entry with its known result.
Molecule	Result
CCN(CC)c1ccc2c(cc1=O)[C@@H](NC(C)=O)CCc1cc(OC)c(OC)c(OC)c1-2	31.7% (inactive)
CN1C(=O)N(C)C2C1NN=c1s/c(=C\c3ccc(C(F)(F)F)cc3)c(=O)n12 (stereo not given)	18.8% (inactive)
O=C(Cc1ccc([N+](=O)[O-])cc1)Oc1ccccc1	93.1% (inactive)
Cc1nn(-c2ccccc2)c2nc3c(nc12)C1=NCCN1C(c1ccc(Cl)cc1)N3 (stereo not given)	55.1% (inactive)
NS(=O)(=O)c1ccc(CCn2c(SCC(=O)N/N=C/c3ccccc3O)nc3ccccc3c2=O)cc1	36.1% (inactive)

Looking up O=C1/C(=C/c2cc(F)cc(F)c2)Cc2cc(F)cc(F)c21 , I see its growth listed as 88.1% (inactive)

Looking up CCOC(=O)Cn1c(-c2nonc2NC(=O)c2ccccc2F)nc2ccccc21 , I see its growth listed as 44.7% (inactive)

Looking up COc1ccc(/C=N/NC(N)=S)c(OC)n1 , I see its growth listed as 105% (inactive)

====

growth reference
Test system: COLO 205 colon
Procedure Details: NCI-60 one-dose screen, 48 h (100 = growth as untreated, 0 = no growth, -100 = all killed)
Setup Conditions: 10 µM unless noted
Compounds without any hit were thinned out: in the full panel of roughly 83,000, 20% have a hit.
Hi! Could you send only the number? It should be in %, unit omitted.

The examples below pair each entry with its known result.
Compound	Unit Abbreviation	growth
CCCCCCCC/C=C\CCCCCCCC(=O)OCCCCCC	%	124
c1ccc(CCn2cccc2)nc1	%	94.8
C=C(C)[C@@H]1CC[C@]2(C(=O)O)CC[C@]3(C)[C@H](CC[C@@H]4[C@@]5(C)C[C@@H](CC#Cc6ccc(C(C)=O)s6)[C@H](O)C(C)(C)[C@@H]5CC[C@]43C)[C@@H]12	%	59.5

Looking up COc1ccc(-c2ccc(-c3ccc(C(=N)N)s3)s2)cc1 , I see its growth listed as -89.2

Looking up CC(C)N(C(=S)SSC(=S)N(C(C)C)C(C)C)C(C)C , I see its growth listed as 112

Looking up CNC1=C([N+](=O)[O-])C(c2ccccc2O)C(C#N)=C(c2cccs2)O1 (stereo not given) , I see its growth listed as 101

Looking up O=C(NCCN1CCCC1)n1cc(-c2ccncc2)c(-c2cc(O)cc(Cl)c2)n1 , I see its growth listed as 76.4

Looking up CC(=O)c1ccc(Br)c([N+](=O)[O-])c1 , I see its growth listed as 127

Looking up CCCCCCCCCCCCNC(=O)N[C@H](C(=O)N[C@H]1/C=C/CCNC(=O)/C=C/[C@H](C)NC1=O)C(C)C , I see its growth listed as -51.3

Looking up O=C1CCCN1C1CCN2CCCc3cccc1c32 (stereo not given) , I see its growth listed as 110

====

System: SNB-19 CNS
Procedure Details: NCI-60 one-dose screen, 48 h
Setup Conditions: 10 µM unless noted
The panel holds about 83,000 compounds, 20% with a hit somewhere; the sample as a whole holds those more often. The source made the active and inactive calls. The calls were made as follows: active = growth percent below 10; inactive = the rest.
Use one of these outcomes when replying: active, inactive

Worked cases, answers included:
Compound	Measured On	Assigned Class
CCN(CC)CC(=O)Nc1c(C)ccc(N)c1C	SNB-19 CNS	inactive
COc1ccc(CNc2c3ccccc3nc3ccc(OC)cc23)cc1	SNB-19 CNS	inactive
O=C(Nc1ccccc1)c1cc2ccccc2s1	SNB-19 CNS	inactive
ClCc1c(Cl)c(Cl)c(Cl)c(CCl)c1Cl	SNB-19 CNS	inactive
CC(NC(=O)c1ccccc1)C(=O)Nc1ccccc1 (stereo not drawn)	SNB-19 CNS	inactive
NS(=O)(=O)c1ccc(CCn2c(SCC(=O)N/N=C/c3ccccc3O)nc3ccccc3c2=O)cc1	SNB-19 CNS	inactive
CCCC(CCC)(C(N)=O)C(=O)O	SNB-19 CNS	inactive
N/C(=N\OC(=O)c1ccccc1)C(Cc1ccccc1)C(=O)NOC(=O)c1ccccc1 (stereo not drawn)	SNB-19 CNS	inactive

Look up the recorded call for Clc1ccc(C2=NN[C@H](c3cn(-c4ccccc4)nc3-c3ccccc3)C2)cc1 in this test.
inactive

====

Tested on: COLO 205 colon
Procedure Details: NCI-60 one-dose screen, 48 h
Setup Conditions: 10 µM unless noted
This is part of a sample that, as a whole, favours compounds with a hit. Of some 83,000 tested, about 20% had one in any assay. Active and inactive are the calls of the source. The calls were made as follows: active = growth percent below 10; inactive = the rest.
Use one of these outcomes when replying: label 1 = active, label 0 = inactive

Worked cases, answers included:
Molecule	Assigned Class
CS(=O)(=O)c1ccc(C(=O)N/N=C/c2ccc3c(c2)OCO3)cc1	label 0
O=c1nc(-c2ccccc2)c2cc(-c3ccc(N4CCOCC4)cc3)ccc2[nH]1	label 0
O=C(O)c1ccccc1Oc1cc(-c2ccco2)nc(OCCN2CCOCC2)n1	label 0
COc1cc(C2CC(c3ccc(C)cc3)=NN2C=O)ccc1Oc1nc2c(c(=O)n(C)c(=O)n2C)n1C (stereo unspecified)	label 0
COc1ccc2[nH]cc(C3(c4c[nH]c5ccc(OC)cc45)C(=O)Nc4ccc(Cl)cc43)c2c1	label 0

Look up the recorded call for Nc1ccc(C2=NNC(=O)Cc3cc4c(cc32)OCCO4)cc1Cl in this test.
label 0

Look up the recorded call for O=C(Nc1ccc(-n2ccc3c(NC(=O)c4ccccc4)nccc32)cc1)c1ccc(N2CCOCC2)c(C(F)(F)F)c1 in this test.
label 0

Look up the recorded call for COc1cc2c(c(OC)c1O)C(=O)C(OC)C(c1ccc(O)c(O)c1)O2 (stereo unspecified) in this test.
label 0

Look up the recorded call for COc1ccc(-c2conc2-n2nc(-c3ccccc3)nc2-c2ccccc2)cc1 in this test.
label 0

Look up the recorded call for NNc1ccc(S(N)(=O)=O)cc1 in this test.
label 0

====

Test system: MALME-3M melanoma
Procedure Details: NCI-60 one-dose screen, 48 h
Setup Conditions: 10 µM unless noted
About 83,000 compounds went through this panel and 20% of them were active in at least one assay; those are over-represented in the sample as a whole. The source made the active and inactive calls. Rule for the calls: active = growth percent below 10; inactive = the rest.
Use one of these outcomes when replying: True = active, False = inactive

Worked cases, answers included:
Compound	Assigned Class
CC(CN1CCN(CC(C)Nc2ccnc3cc(Cl)ccc23)CC1)Nc1ccnc2cc(Cl)ccc12 (stereo not given)	True
CC(C)(C)[Si](C)(C)OC1[C@@H](CNC(N)=O)O[C@@H](n2cnc3c(NC(=O)Nc4ccccc4)ncnc32)[C@H]1O[Si](C)(C)C(C)(C)C (stereo not given in full)	False
O=C(NCCN1CCCCC1)n1cc(-c2ccncc2)c(-c2ccc(Cl)c(O)c2)n1	True

Look up the recorded call for O=[N+]([O-])c1ccc(Sc2nc(Cl)nc(NC3CCCC3)n2)cc1 in this test.
True

Look up the recorded call for CN(C)c1nc(-c2cccs2)n2nc(-c3ccco3)cc2n1 in this test.
False

Origin of the recorded values: PubChem BioAssay (NCI)
